Would you kindly list apparent KD of MS2 coat protein for each of these sequences?
system: MS2 coat protein; experiment: apparent KD of MS2 coat protein; higher = weaker reporter binding; details: Eterna round: R107; input ligand: arginine 13.2 mM
Answers are plain numbers, in nM.

The cases that follow already have their apparent KD of MS2 coat protein on record.
UGGUACUAGGCGGCCGCCACUGGGUGAUACAUGAGGAUCACCCAUGUUUAAUGCCGAGAGGCAACUAGGACCGGGCCUAGUACAU	101
GCCGGACUUUCGGCCGCCACUGAGAGAGUCGUGUGAACAUGAGGAUCACCCAUGUAAUAUAUAUACAGGACCGGGAGGGUUGGGC [4.R]	10.5
AUUCAUGGAAACAUGACAUACAUAACCGGUCGAGGACCGGUACGGCCGCCACUCGUUUGGAGGCACAUGAGGAUCACCCAUGUUA [SS Tryp A #9]	21.7

Fill in apparent KD of MS2 coat protein for each of the 3 sequences listed.
1. GCCAUCGGCGGAAGCCGAUGGGAUACAGAAGGAGCGUGGAUUAACACAGGUAGGUCGCUGGACAUGAGGAUCACCCAUGUAAUAG [SSAA #8]
2. CCGUCACAUGAGGAUCACCCAUGUGCGGAAGGAGCGGACGAUAGUCCAGGUAGGUCGCCGUAUAGCCAAUGACCAGCAGUGUCGG [XARG-A 22]
3. AGUAGACACGCGGCCGCCACUUGAGGAUCACCCAAGUGGUGUGUACUUGAAAACAAGUGCACAUCAAGGACCGGGCGUGUCUACA [Omei Tryp B SS D v3]

[17.4, 12.4, 7.19]

---

test system: K4 kissing-loop RNA reporter; experiment: apparent KD of K4 kissing-loop reporter; higher = weaker reporter binding; settings: Eterna round: R107; input ligand: tryptophan 2.4 mM
quantity_measured: apparent KD of K4 kissing-loop reporter
Write the numeric value and follow it with the unit.

Fill in apparent KD of K4 kissing-loop reporter for each of the 3 sequences listed.
1. UAAUCCUAAUGAUAAUAAUCAAGUGGUGGACGAGGACCGGUACGGCCGCCACUCGAAAAUGCAGUGAUGUUGUAAUACGGAUAAU [Exclusion - Tryptophan A (Freestyle 3)]
2. GCCAGUGCGCGAAGGAGCGCCGUGACAGGUUACUGCCUUGGGCAGUGAUGUUGCUCAAUCUGGCAGGUAGGUCGCGUGCACUGGC
3. AGACGUUUGGGAAGGAGCGGAAUGUAAUACGGAACGCGUGGAGGUGCAGUGAUGUUGCAGAUCCAGGUAGGUCGCCCAAGGGACG [Esenraerve]

1. 247 nM
2. 197 nM
3. 91.1 nM

---

test system: MS2 coat protein; experiment: apparent KD of MS2 coat protein; higher = weaker reporter binding; conditions: Eterna round: R107; input ligand: arginine 13.2 mM
Would you kindly list apparent KD of MS2 coat protein for each of these sequences?
One number for each entry, in nM.

The cases that follow already have their apparent KD of MS2 coat protein on record.
AGCCGGAUUACGGCCGCCACUGUAGACGUGACGAAAGUCGCGUCAACAUGAGGAUCACCCAUGUACAGGACCGGGUGGUCCGGCA [Omei Trp B SS A v3]	7.09
GGACUAACCAGAAGGAGCGACACGCAGAAACUGCUAAUUCCUCCGCACGAGGAUCACCCGUGUCAGGUAGGUCGCUGGUUAGUCG [ArgBX 28]	20.3
CAUAUAUAUGGAAGGAGCGCGAUUACAUAACAUGAGGAUCACCCAUGUAAGAAAUUAUUCAUGCAGGUAGGUCGCCAUAUAUAUG [Same State Arginine B GF6]	29.3
AUGUCGUUGAAUAUAGCGGCUUGGAGUGAUACCAGUAUGAUCCAAUACCCUUGGCAGCAUUACAUGAGGAUCACCCAUGUUCCAG [SSTheo A #24]	17.2
GGGCGUGUGGUGCGGCGUGCUCCGCUCCGUCGAGGACCGGUACGGCCGCCACUCGACAUGAGGAUCACCCAUGUGCGAGCGCGCG [#1 Exclusion - Tryptophan A Attempt #9 (HarryS)]	16.3
UAUACUAUGAAAGUAGUAUAUACGUGUUGACGAGGACCGGUACGGCCGCCACUCGACAUGAGGAUCACCCAUGUAUAGAAUAAGU [TrypA_F1]	18.6

Fill in apparent KD of MS2 coat protein for each of the 4 sequences listed.
1. ACGUCCGGAUUACUCGUGGGCAUGGUCGAUACCAGUAUUUUAAUCUACCCUUGGCAGCGACAUGAGGAUCACCCAUGUGCGAUGA [XTheo A #20]
2. AUACAUGAGGAUCACCCAUGUAUAGUUGAAGGAGCGACCGGUGGGUCAGGUAGGUCGCAGCGCAUGGCGUCCACGCGUGUAUGCC [#1 Exclusion - Arginine A Attempt #30 (Inspired by Pi)]
3. GUCCUAGCGAUCGCUCGCUAGGACGCGGAUACCAGCGAGGUCCAUCGCCCUUGGCAGCCGAACAUGAGGAUCACCCAUGUCGGUA [#1 Same State - Theophylline A Attempt #18 (HarryS)]
4. AUGCACAUCUAGGAUACCAGCACCCUUAUGUCACUAGUUAACAUGAGGAUCACCCAUGUUUGCCCUUGGCAGCCUCAUUGACCAU [theeternabot_exclusion_MS2_Theo_B_9]

1: 21.5; 2: 10.7; 3: 8.4; 4: 59.5

Per the records, this sequence ( UAGUACAUGAGGAUCACCCAUGUCGGAGGUCGAGGACCGGUACGGCCGCCACUCGGUCAUGCCCUACGAUACGACAGGAAUCUGU [theeternabot_sameState_MS2_Trp_A_28] ) has apparent KD of MS2 coat protein equal to 21.8

---

system: MS2 coat protein; assay: apparent KD of MS2 coat protein; designed switch direction (-1 OFF switch, 1 ON switch): 1; higher = weaker reporter binding; conditions: input ligand: microRNA oligo, concentration not stated
Tag: Y if measured apparent KD of MS2 coat protein is not below 0.03 µM, N if it is.

Study these solved cases before continuing.
ACAUGAGGAUCACCCAUGUAUAGAUUUGAAUCUUAAGUUACGUAGGAUAUCGUGUUUAGUAUCAUCGAGAAGGACGAUCUGAUA [JR_SSNG3_Sub067] (Eterna round: R96, puzzle: Same State NG 3)	N
AUAGUUUCCGAAGGAUAUGAUGAGGAUCACCCAUCAGAAGGUUGGCUAUUGGGCUGACAUGAGGAUCACCCAUGUUCCGGUGUU (Eterna round: R96, puzzle: Same State NG 1)	Y
GCGGAGAGGUAAGGAUAUUCAUGGCAUAGACAUGAGGAUCACCCAUGUAGGAGACGAAUUAGAAGGAAGAAGGUACCGGGACGC [AK SSNG2-V2-18.1] (Eterna round: R96, puzzle: Same State NG 2)	Y
UGACAAGUGGUAGGAUAUCCAUGACAUGAGGAUCACCCAUGUUCUUUUGGUGUCCGUCACGGACGGGAGAAGGACCAACAUGAG [Same State NG2 S3] (Eterna round: R96, puzzle: Same State NG 2)	N
CCGAUGCUUAUAAACAUGAGGAUCACCCAUGUGAGGACACAUGAGGAUAUGCAGGUCAAAGACUUGCAGAAGGCAUAGCGUCGG [JL SSNG3 3.89] (Eterna round: R96, puzzle: Same State NG 3)	Y
AUUGGGUAACGAGGAUAUCGUUUUUGUUUUUUUCGAGAAGGCGUUAUAGUUUCUUUCUAUUGUUACAUGAGGAUCACCCAUGUU [JR_SSNG1_Sub053] (Eterna round: R96, puzzle: Same State NG 1)	N
UGUUGUAUUACAGGAUAUCUAGCAUUUUUAUUUAGAGAAGGGUAUUCACAUGAGGAUCACCCAUGUAUAUACGAGGAAGUUGUG [JMF's solution 32] (Eterna round: R96, puzzle: Same State NG 1)	Y
UGCCUGAGUCGAGGAUAUUAUGGAUCCUCUAAUACAUGAGGAUCACCCAUGUAAUUAAUUAUACAUGAGAAGGCGACUCAGGCA [SSNG2/12-A2] (Eterna round: R96, puzzle: Same State NG 2)	N

Now take the following sequence into account.
Test whether the sequence ACAUGAGACGCAGGAUAUCUUGUACCUACAUGUGACAUGAGGAUCACCCAUGUGGUAAGUAUGAUAGAGAAGGGCGAGAUAUGU [Equivalance 56 - Jieux - Same State NG 2] (Eterna round: R96, puzzle: Same State NG 2) records apparent KD of MS2 coat protein of 0.03 µM or higher.
Y

---

Would you kindly list apparent KD of K4 kissing-loop reporter for each of these sequences?
test system: K4 kissing-loop RNA reporter; assay: apparent KD of K4 kissing-loop reporter; higher = weaker reporter binding; details: Eterna round: R107; input ligand: theophylline 20 uM;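 further: bound reporter read as fluorescence of individual clusters on recovered sequencing chips by microscopy, with normalized cluster intensities fitted with a binding model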
Numbers only, in nM.

GGAUAGGACAUAGGAUAUGGUAGUGAUGUUACCAAACUGGUUAAACAUGUCAGAAAACUGGCAUGACCAGAAGGAUGUCCUAUCG [FmnBX 27 U11+A75]	58.8
AUGGUAUUGCGAGGAUAUCCUUCAAACGUGACACUAACGGCAGUGAUGUUGCCGGCGUCGAUCAGAGGAGAAGGCGCGGUGUUAU [Exclusion FMN B GF 23]	125
UGACACUCAACGGCCGCCACUACCGUCGCCGAAUUCCGCAGUGAUGUUGCGAUCCUCCGAUUGUCUAGGACCGGGUUGUUUGGGC [theeternabot_exclusion_KL_Trp_B_43]	216
UGACUGGACUGAAGGAGCGCGAACUCCUAGUGAUGUUAGGAAAUACGAGACAAAGUCUCGACGCAGGUAGGUCGCAGUCUAGUCU [ArgBS 15 #SwitchBubble #StaticStem]	104
ACGUGCACGAGUGAUGUUUGAAAAUCUGAAGGAGCGGGCGAAAGCCCAGGUAGGUCGCAGAAUAGCACGAGCCACGAAAGUGGCA	142
CCAGUUUGAGUGAUGUUCAGGCAUUGGUACGAGGAUAUCGAGGAGUUGAGAAGGCGUACUACUCAACUAUGUAUGAAUACAUACC [FMN A Ex t2]	126

Fill in apparent KD of K4 kissing-loop reporter for each of the 2 sequences listed.
1. UUAGAUCAAAGAUCAGUCUUAUGGAGGGAACGAGGACCGGUACGGCCGCCACUCGAGUGAUGUUCGAGAACCCUCGUGACAAAUU [AK4 EXC Tryptophan A]
2. UGUGUUUACCUGACUCAGUGAUGUUGAGAAGGAGCGUGCUAAUGCACAGGUAGGUCGCUCAACCUAAAUUCAGGUGAGCACUAAA

164
271
